assay notes: In-use chemical stability of vaccine emulsions by UPLC/MS after extraction of peptides
Assay type: physicochemical
study conditions: peak in reconstituted P53-DP-5P, in-use storage t = 0 h
measurement kind: Peptides and related substances (≥0.05%) [Area %] (Area %)
Give just the numeric value; Area % need not be written.

Take a look at these entries with their results.
substance	reported value
SEQ ID NO 191: P53-derived synthetic long peptide, component of P53 DP-5P (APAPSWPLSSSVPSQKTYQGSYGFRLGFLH)	30.37
SEQ ID NO 203: P53-derived synthetic long peptide, component of P53 DP-5P (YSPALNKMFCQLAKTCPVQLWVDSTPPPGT)	13.73
SEQ ID NO 194: P53-derived synthetic long peptide, component of P53 DP-5P (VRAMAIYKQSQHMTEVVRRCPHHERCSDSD)	13.00
SEQ ID NO 201: P53-derived synthetic long peptide, component of P53 DP-5P (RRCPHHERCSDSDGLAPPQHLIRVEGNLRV)	12.43

Challenge: Name the recorded Peptides and related substances (≥0.05%) [Area %] for SEQ ID NO 193: P53-derived synthetic long peptide, component of P53 DP-5P (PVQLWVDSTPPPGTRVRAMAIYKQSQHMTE) .
Response given: 23.90
